In this section, each of the binders is paired with its reported log10(Kd).
- measured-target: T1, human LAG3 (human, UniProt P18627 29-450, limits assumed)
- T1 construct: also called hLAG3
- T1 sequence: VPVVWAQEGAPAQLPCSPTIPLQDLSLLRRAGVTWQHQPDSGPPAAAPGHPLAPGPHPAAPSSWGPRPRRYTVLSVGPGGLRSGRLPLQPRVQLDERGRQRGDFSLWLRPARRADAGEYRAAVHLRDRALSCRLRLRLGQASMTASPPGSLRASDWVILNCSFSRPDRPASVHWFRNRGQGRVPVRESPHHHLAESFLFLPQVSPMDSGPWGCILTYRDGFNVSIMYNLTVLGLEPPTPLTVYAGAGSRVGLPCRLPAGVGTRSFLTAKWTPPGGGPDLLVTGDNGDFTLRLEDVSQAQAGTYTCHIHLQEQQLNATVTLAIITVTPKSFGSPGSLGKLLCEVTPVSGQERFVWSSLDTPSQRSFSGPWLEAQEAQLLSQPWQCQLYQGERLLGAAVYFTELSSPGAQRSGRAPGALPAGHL
- assay-method-text: BLI (Octet) as in Examples 1-4, His-tagged VHH, human LAG3
The base-10 logarithm of Kd, taken with Kd in nM, is what appears here.

Use the examples below as a reference point.
binder	log10(Kd)
LG9 (VHH, not shown: C-terminal His-tag) VHH: EVQLVESGGGLVQPGGSLRLSCAASGSTIDDYPIGWFRQAPGKEREGVSCIDDSDESTYYADSVKGRFTISRDNAKNTVYLQMNSLKPEDTAVYYCARGAIFMIDGVDVFLTYYYDSWGQGTQVTVSS	0.25
LG99 (VHH, not shown: C-terminal His-tag) VHH: EVQLLESGGGLVQPGGSLRLSCAASGSTIDDYPMSWFRQAPGKGREGVAAIDDSDESTYYADSVKGRFTISRDNSKNTLYLQMNSLRAEDTAVYYCARGALFMIDGVDVFLTYYFEFWGQGTLVTVSS	-1.10
LG2 (VHH, not shown: C-terminal His-tag) VHH: QVQLVESGGGLVQPGGSLRLSCAASGTIFSINAMGWYRQAPGKQRELVAIVTFGGSTNYADSVKGRFTISRDNAKNTVYLQMNSLKPEDTAVYYCSARNVQSPVQYHLAVWGQGTLVTVSS	2.80
LG-D8 (VHH, not shown: C-terminal His-tag) VHH: QVQLVESGGGLVQPGGSLRLSCAASGFTFGKYAMSWVRQVPDKGLEWVSSISSSGRDTSYADSAKGRFTIFRNNAANTVYLQMDNLKLEDTGVYYCVKCLEVWATREYDGWGQGTQVTVSS	0.47
LG19 (VHH, not shown: C-terminal His-tag) VHH: QVQLVESGGGLVQPGGSLRLSCAASGFTLDYYAIGWFRQAPGKEREGVSCISSSDGSTYYADSVKGRFTISRDNAKNTVYLQMNSLKPEDTAVYYCAADRRGSCRQYDYWGQGTQVTVSS	-0.94

Retrieve log10(Kd) measured for hLG9 (VHH, also called LG9H; not shown: C-terminal His-tag) VHH: EVQLLESGGGLVQPGGSLRLSCAASGSTIDDYPMSWFRQAPGKGREGVAAIDDSDESTYYADSVKGRFTISRDNSKNTLYLQMNSLRAEDTAVYYCARGAIFMIDGVDVFLTYYYDSWGQGTLVTVSS and print it. 0.43

Retrieve log10(Kd) measured for LG6 (VHH, not shown: C-terminal His-tag) VHH: EVQLVESGGGLVQAGGSLRLSCAVSGSIFSISTMGWYRQAPGKQRELVASITARGSADYADSVKGRFTISRDNAKNTVYLQMSSLKPEDTAVYYCNTDTRSTLYHYSWGQGTQVTVSS and print it. 1.28

Retrieve log10(Kd) measured for LG22 (VHH, not shown: C-terminal His-tag) VHH: EVQLVESGGGLVQPGGSLRLSCAASGFTLDYYAIGWFRQAPGKEREGVSCIINSDGSTYYADSVKGRFTISRDNAKNTVYLQMNSLKPEDTAVYYCATDRYSDCRGPYDYWGQGTQVTVSS and print it. -0.57
